Cited source: ChEMBL document CHEMBL1149585

- Tested on: Mus musculus
- Protocol: Inhibition of xylene-induced ear edema in Kunming mouse at 20 mg/kg, po after 2 hrs relative to control
- Type: functional
Measured inhibition in vivo at 20 mg/kg by item
Report only the number, with the unit % understood.

As a guide, the following entries are already answered.
| Compound | inhibition in vivo at 20 mg/kg / % |
| --- | --- |
| O=C(Cc1ccccc1)N[C@H]1CCCO[C@@H](c2ccc(Cl)cc2)OC1 | 23.7 |
| C[C@@H]1O[C@@H](c2cccc([N+](=O)[O-])c2)OC[C@H]1NC(=O)Cc1ccccc1 | 47.1 |
| C[C@H]1O[C@@H](c2ccc(Cl)cc2)OC[C@H]1NC(=O)Cc1ccccc1 | 46.4 |

// query Provide one value: measured inhibition in vivo at 20 mg/kg of C[C@@H]1O[C@H](c2ccccc2)OC[C@H]1NC(=O)Cc1ccccc1
// result 41.3

// query Provide one value: measured inhibition in vivo at 20 mg/kg of O=C(N[C@H]1CO[C@H](c2ccc(Cl)cc2)OC1)c1ccccc1
// result 47.4

// query Provide one value: measured inhibition in vivo at 20 mg/kg of C[C@@H]1O[C@@H](c2ccc([N+](=O)[O-])cc2)OC[C@H]1NC(=O)Cc1ccccc1
// result 55.8

// query Provide one value: measured inhibition in vivo at 20 mg/kg of C[C@@H]1O[C@H](c2ccc(Cl)cc2)OC[C@H]1NC(=O)c1ccccc1
// result 47.1

// query Provide one value: measured inhibition in vivo at 20 mg/kg of C[C@@H]1O[C@@H](c2ccccc2)OC[C@H]1NC(=O)Cc1ccccc1
// result 40

// query Provide one value: measured inhibition in vivo at 20 mg/kg of O=C(N[C@H]1CCO[C@H](c2ccc([N+](=O)[O-])cc2)OC1)c1ccccc1
// result 19.2

// query Provide one value: measured inhibition in vivo at 20 mg/kg of C[C@@H]1O[C@@H](/C=C/c2ccccc2)OC[C@H]1NC(=O)Cc1ccccc1
// result 32.1

// query Provide one value: measured inhibition in vivo at 20 mg/kg of C[C@@H]1O[C@@H](c2ccc([N+](=O)[O-])cc2)OC[C@H]1NC(=O)c1ccccc1
// result 57.4

// query Provide one value: measured inhibition in vivo at 20 mg/kg of O=C(Cc1ccccc1)N[C@H]1CCO[C@@H](c2ccc(Cl)cc2)OC1
// result 24.4

// query Provide one value: measured inhibition in vivo at 20 mg/kg of O=C(Cc1ccccc1)N[C@H]1CO[C@H](c2ccc(Cl)cc2)OC1
// result 42

// query Provide one value: measured inhibition in vivo at 20 mg/kg of O=C(Cc1ccccc1)N[C@H]1CO[C@H](c2ccccc2)OC1
// result 37.8

// query Provide one value: measured inhibition in vivo at 20 mg/kg of O=C(Cc1ccccc1)N[C@H]1CO[C@@H](/C=C/c2ccccc2)OC1
// result 27.2

// query Provide one value: measured inhibition in vivo at 20 mg/kg of C[C@@H]1O[C@H](/C=C/c2ccccc2)OC[C@H]1NC(=O)Cc1ccccc1
// result 33.3

// query Provide one value: measured inhibition in vivo at 20 mg/kg of O=C(Cc1ccccc1)N[C@H]1CCO[C@@H](c2ccc([N+](=O)[O-])cc2)OC1
// result 19.6

// query Provide one value: measured inhibition in vivo at 20 mg/kg of O=C(Cc1ccccc1)N[C@H]1CO[C@@H](c2cccc([N+](=O)[O-])c2)OC1
// result 41.3

// query Provide one value: measured inhibition in vivo at 20 mg/kg of C[C@@H]1O[C@H](c2ccc(Cl)cc2)OC[C@H]1NC(=O)Cc1ccccc1
// result 46.1

// query Provide one value: measured inhibition in vivo at 20 mg/kg of C[C@@H]1O[C@@H](c2ccc(Cl)cc2)OC[C@H]1NC(=O)c1ccccc1
// result 56.4
